Give GI50 for every item shown.
Tested on: HOP-62
PROTOCOL: NCI tumour cell line growth inhibition, 48 h
Active and inactive are the calls of the source. Rule as the data show it: active = GI50 up to about 1.1 µM and inactive = higher. Where a SMILES comes first, the peptide text is derived from it. The star is where a group is joined. Boc = CC(C)(C)OC(=O)*; OBn = c1ccc(CO*)cc1

COC(=O)/C(C#N)=C1\NC(=O)c2ccccc21; > 100 µM (inactive)

For the 8 compounds below, give their GI50 values.
1. N#CCCN(CCC#N)c1ccc(/C=C(/NC(=O)Nc2ccccc2Cl)NC(=O)c2cc([N+](=O)[O-])ccc2Cl)cc1
2. C=C(C)C(=O)/N=C(\N)NC#N
3. O=C(O)C(/C=C/c1ccccc1)c1ccccc1 (configuration not stated)
4. [O-][S+]1c2ccccc2N=C(c2ccc3ccccc3c2)CC1C1=CC=CCC1 (configuration not stated)
5. CC(C)(C)OC(=O)NC(Cc1ccccc1)C(=O)NC(Cc1ccccc1)C(=O)NCC(=O)OCc1ccccc1 (stereo not drawn) (Boc-Phe-Phe-Gly-OBn; configuration not given here)
6. Nc1ccc2c(SCc3ccc([N+](=O)[O-])cc3)c3ccccc3nc2c1
7. Cc1ccc(CC(Cc2ccccc2C)C(=O)O)c(C(=O)O)c1 (configuration not stated)
8. Cn1ccnc1C(c1nccn1C)C(C)(C)[N+](=O)[O-]

Resp:
1. > 100 µM (inactive)
2. > 63.1 µM (inactive)
3. > 100 µM (inactive)
4. 19.1 µM (inactive)
5. 31.1 µM (inactive)
6. 21.8 µM (inactive)
7. > 100 µM (inactive)
8. > 100 µM (inactive)

Answer for every listed entry: what is its GI50? The entries follow.
1. Nc1nc(SCCC/C=C/I)nc2c1ncn2C1OC(COP(=O)(O)O)C(O)C1O (configuration not stated)
2. CCOC(=O)c1csc(NC(=O)CN2CCN(c3ccccc3)CC2)n1

Resp:
> 100 µM (inactive)
> 100 µM (inactive)

For each listed entry, give its GI50.
1. Nc1c(C(=O)N/N=C/c2ccccc2)sc(=S)n1-c1ccccc1
2. ClC1=NSSC1(Cl)Cl
3. CC(C)(C)CC(C)(C)c1ccc(O)c(C[N+](C)(C)[O-])c1
4. COc1cc(CNc2cnc3ccc(N)cc3n2)cc(OC)c1OC
5. O=C(/C=C/c1c(O)ccc2ccccc12)c1ccccc1Cl
6. Cn1c(=S)[nH]c(N)c(Cc2ccccc2)c1=O
7. COC(=O)/C=C\n1ncc(=O)[nH]c1=O

Resp:
> 100 µM (inactive)
> 100 µM (inactive)
> 100 µM (inactive)
> 100 µM (inactive)
76.6 µM (inactive)
> 100 µM (inactive)
> 100 µM (inactive)

Working through the 3 compounds below one at a time, give GI50 for each.
1. COc1ccc2nc3c([N+](=O)[O-])ccc(NCCCN(C)C)c3c(N)c2c1
2. COc1ccc(-c2coc3cc(OC)cc(O)c3c2=O)cc1 [4',7-DIMETHOXY-5-HYDROXYGENISTEIN]
3. CC(N)Cc1ccc(Cl)cc1 (configuration not stated)

Resp:
["1.78 µM (inactive)", "32.4 µM (inactive)", "> 100 µM (inactive)"]

Req: Determine its reported GI50: N=C(N)NS(=O)(=O)c1ccc(Nc2c3ccccc3nc3c(C(=O)NC(CO)(CO)CO)cccc23)cc1
Resp: 13.6 µM (inactive)
